# maps each entry to its pIC50
target or test system: DENV2 NS2B/NS3pro (Dengue virus type 2)
test name: biochemical
Here pIC50 is given on a logarithmic scale as minus log10 of the concentration in mol/L.

Observe how each entry below is paired with its result.
# molecule, target or test system, measure, endpoint result
measured = [
    ("Oc1cc(O)c2c(c1)O[C@H](c1cc(O)c(O)c(O)c1)[C@H](O)C2 [EGC, epigallocatechin]", "DENV2 NS2B/NS3pro (Dengue virus type 2)", "pIC50", 3.84),
    ("CC(=O)Oc1cc(OC(C)=O)c2c(c1)O[C@H](c1cc(OC(C)=O)c(OC(C)=O)c(OC(C)=O)c1)[C@H](OC(=O)c1cc(OC(C)=O)c(OC(C)=O)c(OC(C)=O)c1)C2 [AcEGCG, EGCG octaacetate]", "DENV2 NS2B/NS3pro (Dengue virus type 2)", "pIC50", 4.40),
]

Problem: pIC50 lookup needed for O=C(O[C@@H]1Cc2c(O)cc(O)cc2O[C@@H]1c1cc(O)c(O)c(O)c1)c1cc(O)c(O)c(O)c1 [EGCG, Epigallocatechin gallate] , thanks.
Solution: 5.20

---

target or test system: DENV2 NS2B/NS3pro (Dengue virus type 2, UniProt P14340)
Sequence (P14340 1394-1440 limits assumed): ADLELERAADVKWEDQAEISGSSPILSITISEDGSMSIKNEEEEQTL
Sequence (P14340 1476-1660 limits assumed): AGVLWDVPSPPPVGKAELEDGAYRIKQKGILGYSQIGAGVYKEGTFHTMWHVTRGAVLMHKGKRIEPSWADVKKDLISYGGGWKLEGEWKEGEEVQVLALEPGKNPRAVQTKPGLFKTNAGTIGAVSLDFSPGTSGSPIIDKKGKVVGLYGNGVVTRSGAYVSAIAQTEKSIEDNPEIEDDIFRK
test name: Surface plasmon resonance dissociation constant
# maps each entry to its Kd
Please reply with the bare figure in nM and do not write the unit itself.

Observe how each entry below is paired with its result.
# molecule, target or test system, measure, units text, endpoint result
measured = [
    ("CC(=O)Oc1cc(OC(C)=O)c2c(c1)O[C@H](c1cc(OC(C)=O)c(OC(C)=O)c(OC(C)=O)c1)[C@H](OC(=O)c1cc(OC(C)=O)c(OC(C)=O)c(OC(C)=O)c1)C2 [AcEGCG, EGCG octaacetate]", "DENV2 NS2B/NS3pro (Dengue virus type 2, UniProt P14340)", "Kd", "nM", 2400),
    ("O=C(O[C@@H]1Cc2c(O)cc(O)cc2O[C@@H]1c1cc(O)c(O)c(O)c1)c1cc(O)c(O)c(O)c1 [EGCG, Epigallocatechin gallate]", "DENV2 NS2B/NS3pro (Dengue virus type 2, UniProt P14340)", "Kd", "nM", 70),
]

Now for the molecule whose Kd we want.
Problem: Kd lookup needed for Oc1cc(O)c2c(c1)O[C@H](c1cc(O)c(O)c(O)c1)[C@H](O)C2 [EGC, epigallocatechin] , thanks.
Solution: 30

---

target or test system: ZIKV NS2B/NS3pro (Zika virus, UniProt A0A024B7W1)
Sequence (A0A024B7W1 1421-1467): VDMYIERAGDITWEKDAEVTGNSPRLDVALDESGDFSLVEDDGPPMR
Sequence (A0A024B7W1 1503-1672): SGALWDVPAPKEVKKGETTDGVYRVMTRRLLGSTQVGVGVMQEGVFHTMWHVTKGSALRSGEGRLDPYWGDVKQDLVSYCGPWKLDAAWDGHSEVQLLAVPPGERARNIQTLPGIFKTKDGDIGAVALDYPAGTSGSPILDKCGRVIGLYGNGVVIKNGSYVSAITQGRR
test name: Surface plasmon resonance dissociation constant
measure: pKd
Here pKd is given on a logarithmic scale as minus log10 of the concentration in mol/L.

Observe how each entry below is paired with its result.
# molecule, target or test system, pKd
data = [
    ("Oc1cc(O)c2c(c1)O[C@H](c1cc(O)c(O)c(O)c1)[C@H](O)C2 [EGC, epigallocatechin]", "ZIKV NS2B/NS3pro (Zika virus, UniProt A0A024B7W1)", 7.70),
    ("CC(=O)Oc1cc(OC(C)=O)c2c(c1)O[C@H](c1cc(OC(C)=O)c(OC(C)=O)c(OC(C)=O)c1)[C@H](OC(=O)c1cc(OC(C)=O)c(OC(C)=O)c(OC(C)=O)c1)C2 [AcEGCG, EGCG octaacetate]", "ZIKV NS2B/NS3pro (Zika virus, UniProt A0A024B7W1)", 5.32),
]

Problem: pKd lookup needed for O=C(O[C@@H]1Cc2c(O)cc(O)cc2O[C@@H]1c1cc(O)c(O)c(O)c1)c1cc(O)c(O)c(O)c1 [EGCG, Epigallocatechin gallate] , thanks.
Solution: 7.05

---

# maps each entry to its pKd
target or test system: YFV NS2B/NS3pro (Yellow fever virus, UniProt Q1X881)
Sequence (Q1X881 1402-1449 limits assumed): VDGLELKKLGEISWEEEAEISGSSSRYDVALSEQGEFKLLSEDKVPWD
Sequence (Q1X881 1491-1660 limits assumed): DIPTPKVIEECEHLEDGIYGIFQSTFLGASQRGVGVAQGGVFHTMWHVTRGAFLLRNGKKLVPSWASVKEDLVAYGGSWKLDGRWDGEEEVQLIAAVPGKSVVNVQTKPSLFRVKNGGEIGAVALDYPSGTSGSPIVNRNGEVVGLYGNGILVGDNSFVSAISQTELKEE
test name: biochemical
Here pKd is given on a logarithmic scale as minus log10 of the concentration in mol/L.

Problem: pKd lookup needed for Oc1cc(O)c2c(c1)O[C@H](c1cc(O)c(O)c(O)c1)[C@H](O)C2 [EGC, epigallocatechin] , thanks.
Solution: 6.57

Problem: pKd lookup needed for O=C(O[C@@H]1Cc2c(O)cc(O)cc2O[C@@H]1c1cc(O)c(O)c(O)c1)c1cc(O)c(O)c(O)c1 [EGCG, Epigallocatechin gallate] , thanks.
Solution: 7.22

Problem: pKd lookup needed for CC(=O)Oc1cc(OC(C)=O)c2c(c1)O[C@H](c1cc(OC(C)=O)c(OC(C)=O)c(OC(C)=O)c1)[C@H](OC(=O)c1cc(OC(C)=O)c(OC(C)=O)c(OC(C)=O)c1)C2 [AcEGCG, EGCG octaacetate] , thanks.
Solution: 6.33
